From: PubChem BioAssay (NCI)

Reported values of growth inhibition for individual entries
Assay: NCI Yeast Anticancer Drug Screen. Data for the sgs1 mgt1 strain (AID 161);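 also: 0% = growth of cultures given vehicle only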
Conditions: S. cerevisiae sgs1 mgt1 strain, at 50.0 µM (retest, dose inferred, filed as 5.0), stronger effect = higher value
The panel holds about 79,000 compounds, 15% with a hit somewhere; the sample as a whole holds those more often.
reported.metric: growth inhibition (%)

{"columns": ["compound", "scale.unit", "assay.result"],
 "data": [
  ["CC1(Br)Cc2ccccc2C1=O (stereo unspecified)", "%", 31],
  ["CC(C)c1ccccc1OP(=S)(S)Oc1ccccc1C(C)C", "%", 45],
  ["O=C(NCC1(O)N=C(c2ccc(F)cc2)c2ccsc2-n2cccc21)c1ccc(Cl)cc1Cl (stereo unspecified)", "%", 63],
  ["Clc1nc(Cl)nc(Nc2ccccc2Cl)n1", "%", 98],
  ["O=c1oc2ccccc2c(O)c1C(C/C(CCN1CCCC1)=N/O)c1ccccc1 (stereo unspecified)", "%", 16],
  ["C[C@]12CC[C@H]3[C@@H](CCC4=CC(=O)CC[C@@H]43)[C@@H]1CC[C@@H]2OC(=O)N(CCCl)N=O", "%", 97]
]}

###

Experiment: NCI Yeast Anticancer Drug Screen. Data for the bub3 strain (AID 167)
Details: S. cerevisiae bub3 mutant strain, at 50.0 µM
About 79,000 compounds went through this panel and 15% of them were active in at least one assay; those are over-represented in the sample as a whole. Activity calls are given as the source filed them. Rule as the data show it: active = growth inhibition above about 70%; inactive = the rest.
Outcome codes: active, inactive

{"columns": ["compound", "label"],
 "data": [
  ["CCOc1ccc(N)cc1", "inactive"],
  ["CCCCN1CCC2(CC1)COCc1ccccc12", "inactive"],
  ["NC(=O)NNC(=O)C(Cl)(Cl)Cl", "inactive"],
  ["O=P1(N(CCCl)CCCl)Nc2cc3ccccc3cc2N1", "inactive"],
  ["CCOC(=O)C(Br)C(C)Br (centres undefined)", "inactive"],
  ["Cc1ccc(CCl)c(O)c1", "inactive"],
  ["S=c1sc(-c2ccccc2)c[se]1", "inactive"],
  ["CC12CC(=O)C3C(CCC4CC=CCC43C)C1CCC2=O (centres undefined)", "inactive"],
  ["CC1CCC2(OC1)OC1C(O)C3C4CCC5CC(OC6OC(CO)C(OC7OC(CO)C(O)C(OC8OCC(O)C(O)C8O)C7OC7OC(CO)C(O)C(OC8OC(CO)C(O)C(O)C8O)C7O)C(O)C6O)C(O)CC5(C)C4CCC3(C)C1C2C (centres undefined)", "active"],
  ["CCOc1ccc(Nc2nc(=O)[nH]c3ccccc23)cc1CN(CCCl)CCCl", "inactive"],
  ["CCC1(OC(=O)CNC)C(=O)OCc2c1cc1n(c2=O)Cc2cc3ccccc3nc2-1 (centres undefined)", "active"],
  ["CCCCN1CCC2(CC1)C(=O)NC(=S)NC2=O", "inactive"],
  ["COC1CC(OC2C(C)OC(OC3C(C)OC(OC4CCC5(C)C(=CCC6(O)C5CC(OC(=O)c5ccc(O)cc5)C5(C)C(O)(C(C)=O)CCC65O)C4)CC3OC)CC2OC)OC(C)C1O (centres undefined) (tested in a mixture with another compound)", "inactive"],
  ["O.O.[NH-]C1CCCCC1[NH-].[Pt+2] (centres undefined)", "inactive"],
  ["CC(C)=C(OP1(=S)OCCN1C)C(C)(C)C(=O)N(C)C (centres undefined)", "inactive"],
  ["CCOP(=O)(OCC)/C(C#N)=C/c1cc(O)ccc1O", "inactive"],
  ["O=C(Cl)C1CCC1", "inactive"],
  ["S=P(Nc1ccccc1Cl)(Nc1ccccc1Cl)c1ccccc1", "inactive"],
  ["NC(=S)N=C(N)N", "inactive"],
  ["COc1ccc2c3c1OC1C(Oc4nnnn4-c4ccccc4)C=CC4C(C2)N(C)CCC341 (centres undefined)", "inactive"],
  ["NS(=O)(=O)c1ccc([As](=O)(O)c2ccccc2)cc1", "inactive"],
  ["CC(O)CCC(=O)c1ccoc1 (centres undefined)", "inactive"],
  ["CCN1C[C@]2(COC)[C@H](O)C[C@H](OC)[C@]34C1[C@H]([C@H](OC)[C@H]23)[C@]1(OC(C)=O)[C@H]2[C@@H](OC(=O)c3ccccc3)[C@](O)(C[C@H]24)[C@@H](OC)[C@@H]1O", "inactive"],
  ["CCN(CC)C1=C(N(CC)CC)C(N(CC)CC)=C(N(CC)CC)C1=O.[C-]#[O+].[C-]#[O+].[C-]#[O+].[Fe]", "inactive"],
  ["N#CS.[Cr+3].[NH-]CC[NH-].[NH-]CC[NH-].[NH-]CC[NH-]", "inactive"],
  ["C1=CC(N2CCOCC2)CC1 (centres undefined)", "inactive"],
  ["CN(C)c1ccc(/C=C/c2cc3scc(-c4ccccc4)[n+]3c3ccccc23)cc1", "active"],
  ["CC(C)CC1N=C(NN=C2CCCCC2)SP1(=O)NNc1ncccn1 (centres undefined)", "inactive"],
  ["CC(C)CCCC(C)[C@H]1CCC2[C@@H]3CCC4Cc5nc6c(nc5C[C@]4(C)C3CC[C@@]21C)CC1CC[C@@H]2C(CC[C@@]3(C)C2CC[C@@H]3O)[C@@]1(C)C6 (some centres undefined)", "inactive"],
  ["COC1=C(OC)C23CCc4ccc(OC)c(O)c4C2(CCN3)CC1=O (centres undefined)", "inactive"],
  ["CC[As](CC)SCC1OC(OC(C)=O)C(OC(C)=O)C(OC(C)=O)C1OC(C)=O (centres undefined)", "inactive"],
  ["CCC[CH2][Sn]1([CH2]CCC)[O]CCN2CCN(CC[O]1)CC2", "inactive"],
  ["CN1CC(NC(=O)N(CCCl)N=O)CC2c3cccc4c3c(cn4N=O)CC21 (centres undefined)", "inactive"],
  ["C[N+]1(C)CCN(c2ccccc2)CC1", "inactive"],
  ["Nc1cc2[nH]cnc2c([Se])n1", "inactive"],
  ["COc1ccc2nc3ccccc3c(NCCCCN(C)CCCl)c2c1", "inactive"],
  ["CSP(=S)(SC)SC", "inactive"],
  ["CC1CCC2[S][Sn]3([NH]C2C1)[NH]C1CC(C)CCC1[S]3 (centres undefined)", "active"],
  ["CC(=O)CC(C)=O.[In]", "inactive"],
  ["Cn1c(=O)n(C2(C)C[Se]C2)c2ccccc21", "inactive"],
  ["CN1C(=O)C(=Cc2cccc([N+](=O)[O-])c2)C(=O)N(C)C1=O", "inactive"],
  ["CCOP(=O)(OCC)C(C)(CC)/N=C(\\N)NC#N (centres undefined)", "inactive"],
  ["O=C1CCC(=O)N1[N+](=O)[O-]", "inactive"],
  ["O=c1[nH]c2ccccc2c(=O)n1-c1ccccc1", "inactive"]
]}

###

Experiment: NCI Yeast Anticancer Drug Screen. Data for the mec2-1 strain (AID 157)
Details: S. cerevisiae mec2-1 strain, at 50.0 µM, stronger effect = higher value
The panel holds about 79,000 compounds, 15% with a hit somewhere; the sample as a whole holds those more often.
Kind request: treat 20% as inclusive, so growth inhibition at 20% or higher is Fulfilled, anything lower is Not fulfilled.

{"columns": ["compound", "label"],
 "data": [
  ["CCCCCCCCCCCCCCC[As](=O)(O)CCCCCCCCCCCCCCC", "Not fulfilled"],
  ["CSP(=S)(SC(C)C)SC(C)C", "Not fulfilled"],
  ["O=C(CCl)N(CCO)CCO", "Not fulfilled"],
  ["O=C1C=C2c3ccccc3CC(C(=O)O)C2CC1 (stereo not drawn)", "Not fulfilled"],
  ["NC(N)=NCCN=C(N)N", "Not fulfilled"],
  ["COC(CNS(=O)(=O)c1ccccc1)[CH2][Hg][O]C(C)=O (stereo not drawn)", "Fulfilled"],
  ["Cc1cc[n+](C2=C(Nc3c(C)cccc3C)C(=O)c3ccccc3C2=O)cc1", "Fulfilled"],
  ["[CH3][Sb]1([Cl])[CH2]CC[CH2]1", "Fulfilled"],
  ["N#CCCCCl", "Not fulfilled"],
  ["CCNC(Cc1ccccc1)c1ccco1 (stereo not drawn)", "Not fulfilled"],
  ["Cc1cc2[nH]c3c(C#N)c(OC(=O)N(C)C)c(C)c(=O)n3c2cc1C", "Fulfilled"],
  ["COc1cc([C@@H]2c3cc(O)c(OC)cc3C[C@H]3C(=O)OC[C@@H]23)ccc1O", "Not fulfilled"],
  ["COc1ccc2c(ccc3oc([N+](=O)[O-])cc32)c1", "Fulfilled"]
]}

###

Assay: NCI Yeast Anticancer Drug Screen. Data for the mec2-1 strain (AID 157)
Settings: S. cerevisiae mec2-1 strain, at 50.0 µM
The panel holds about 79,000 compounds, 15% with a hit somewhere; the sample as a whole holds those more often. The source made the active and inactive calls. Rule as the data show it: active = growth inhibition above about 70%; inactive = the rest.
Outcome codes: Y for active, N for inactive

{"columns": ["molecule", "label"],
 "data": [
  ["[Cl][Cd][Cl]", "N"],
  ["CC(C)(C)C1=C(Br)C(F)(C(C)(C)C)OP1(=O)c1ccccc1 (stereo not drawn)", "Y"],
  ["O=[N+]([O-])O.[Tl]", "N"],
  ["O=[N+]([O-])c1ccccc1-c1ccccc1", "N"],
  ["CN(C)c1ccc(N=[N+]=[N-])cc1", "N"],
  ["COc1ccc(C(N)Cc2ccccc2)cc1 (stereo not drawn)", "N"],
  ["CCOP(=O)(OCC)C(=C(Cl)Cl)C(Cl)Cl", "Y"],
  ["CCCCCCNCCc1cnc[nH]1", "N"],
  ["O=C(O)C(CSC(c1ccccc1)c1ccccc1)NC(=O)C(c1ccccc1)c1ccccc1 (stereo not drawn)", "Y"],
  ["O=C(COc1ccc(Cl)c(Cl)c1)Nc1ccc[n+](Cc2ccc(Cl)c(S(=O)(=O)F)c2)c1", "Y"],
  ["Cc1cc(N(CCCl)CCCl)ccc1C1N(Cc2ccc(Cl)cc2Cl)CCCN1Cc1ccc(Cl)cc1Cl", "N"],
  ["CC1=CC(C(=O)O)P(C)(=O)C1 (stereo not drawn)", "N"],
  ["CCC[CH2][Sn]([CH2]CCC)([CH2]CCC)[CH2]CC(=O)OC", "Y"],
  ["COc1ccc2nc3cc(Cl)ccc3c(NCCCSCCCl)c2n1", "Y"],
  ["O=C(NC(CSC(c1ccccc1)(c1ccccc1)c1ccccc1)C(=O)O)OCc1ccccc1 (stereo not drawn)", "Y"],
  ["N#CN(Cc1ccccc1)C(c1ccccc1)(c1ccccc1)c1ccccc1.[I][Sn]([c]1ccccc1)([c]1ccccc1)[c]1ccccc1", "Y"],
  ["ClCCN(Cc1ccccc1)CC1COc2ccccc2O1 (stereo not drawn)", "Y"],
  ["CCC[CH2][Sn]1([CH2]CCC)[O]CC(CN2CCCCC2)[O]1 (stereo not drawn)", "Y"],
  ["O=C1OCC2CC3C4C=CC(C4)C3C12 (stereo not drawn)", "Y"],
  ["CCCCCCCCCCCCCCCCOc1ccc(S(=O)(=O)F)cc1C(=O)Nc1ccc(S(=O)(=O)Nc2cccc3ccccc23)cc1", "N"],
  ["COc1cc2c(cc1O)N=C[C@@H]1CCC(O)N1C2=O (mixture of isomers)", "N"],
  ["ClC1=C(Cl)C2(Cl)C(Cl)CC1(Cl)C2(Cl)Cl (stereo not drawn)", "N"],
  ["CCC[CH2][Sn-]([CH2]CCC)([CH2]CCC)[O]c1cc(Cl)c(Cl)cc1Cl", "Y"]
]}
